experimental protocol: Anticancer activity against human BT549 cells after 48 hrs by MTT assay
Assay type: functional, cell-based
details: BT-549, 48 h
endpoint label: pIC50
Notebook: values listed as pIC50 are -log10 of the concentration (mol/L).

Lab note: COC(=O)/C=C/c1ccc2c(c1)C(=O)C(=O)N2Cc1ccc(OC)cc1 gave pIC50 of 7.15
